# experimental system: MBP-RAMP2 ECD [L106R]-(GS)5-CLR ECD-H6 fusion protein (human) (UniProt O60895)
# Sequence (O60895 other isoform, or with tags, fused parts or gaps L106R L106R): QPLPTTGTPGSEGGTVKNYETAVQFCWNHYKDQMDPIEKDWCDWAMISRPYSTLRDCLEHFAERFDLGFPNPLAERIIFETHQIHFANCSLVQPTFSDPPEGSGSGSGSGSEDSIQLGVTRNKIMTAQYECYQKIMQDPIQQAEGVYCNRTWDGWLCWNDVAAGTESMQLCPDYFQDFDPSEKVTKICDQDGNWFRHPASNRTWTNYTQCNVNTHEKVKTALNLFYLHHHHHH
# assay notes: FP competition vs FITC-AM W/W probe, purified ECD fusion
Where no end group is shown, it is not given here.
Please mark true if the recorded pKI is equal to or greater than 6, and false if it falls below.

Could you tell me if the measured pKI of FVPTDVGPWSY-NH2 [CGRP(27-37)NH2 [N31D, S34P, K35W, A36S, F37Y]] reaches 6 or more?
true

Could you tell me if the measured pKI of DKDNVAPRSLISPWGF-NH2 [AM(37-52)NH2 [K46L, Q50W, Y52F]] reaches 6 or more?
false

Could you tell me if the measured pKI of DKFNVAPRSLISPWGF-NH2 [AM(37-52)NH2 [D39F, K46L, Q50W, Y52F]] reaches 6 or more?
false

Could you tell me if the measured pKI of FVPTDTGPWGY-NH2 [CGRP(27-37)NH2 [N31D, V32T, S34P, K35W, A36G, F37Y]] reaches 6 or more?
false

Could you tell me if the measured pKI of FVPTDVGPWSF-NH2 [CGRP(27-37)NH2 [N31D, S34P, K35W, A36S]] reaches 6 or more?
false

Others:
Could you tell me if the measured pKI of DKFNVAPRSLISPWGY-NH2 [AM(37-52)NH2 [D39F, K46L, Q50W]] reaches 6 or more?
false

Could you tell me if the measured pKI of DKDNVAPRWLISPWGF-NH2 [AM(37-52)NH2 [S45W, K46L, Q50W, Y52F]] reaches 6 or more?
false

Could you tell me if the measured pKI of DKDNVAPRSKISPWGY-NH2 [AM(37-52)NH2 [Q50W]] reaches 6 or more?
true

Could you tell me if the measured pKI of DKDNVAPRTLISPWGY-NH2 [AM(37-52)NH2[S45T, K46L, Q50W]] reaches 6 or more?
false

Could you tell me if the measured pKI of DKKNVAPRSKISPQGY-NH2 [AM(37-52)NH2 [D39K]] reaches 6 or more?
false

Could you tell me if the measured pKI of DKDNVAPRWKISPWGY-NH2 (also called S45W/Q50W double mutant) [AM(37-52)NH2 [S45W, Q50W]] reaches 6 or more?
true

Could you tell me if the measured pKI of DKDNVAPRSKISPFGY-NH2 [AM(37-52)NH2 [Q50F]] reaches 6 or more?
false

Could you tell me if the measured pKI of DKDNVAPRSLISPWGY-NH2 [AM(37-52)NH2 [K46L, Q50W]] reaches 6 or more?
false

Could you tell me if the measured pKI of DKDNVAPRWWISPWGF-NH2 [AM(37-52)NH2 [S45W, K46W, Q50W, Y52F]] reaches 6 or more?
false
